Reference source for all entries: PubChem BioAssay (NCI)

system: NCI-H23 lung; experiment: NCI tumour cell line growth inhibition, 48 h
ASSAY_METRIC: TGI (µM)

>>> meas_value("COCC1C(=O)c2cc3c(cc2C12C=CC1(C=C2)OCCO1)OCO3 (stereo not given)")
26.9
>>> meas_value("O/N=C(\\C=N\\O)c1ccc2c(c1)Sc1ccccc1O2")
60.3

###

system: HCT-15 colon; test: NCI tumour cell line growth inhibition, 48 h
ASSAY_METRIC: TGI (µM)

>>> meas_value("CCOC(=O)c1ccc2c(c1)[n+](=O)c(C(=O)c1ccc3ccccc3c1)c(C(F)(F)F)n2[O-]")
3.3
>>> meas_value("OC(c1ccc(F)cc1)C(F)(F)c1nc(-c2ccccc2)no1 (centres undefined)")
63

###

tested on: T-47D breast; assay: NCI tumour cell line growth inhibition, 48 h; in the data active means GI50 below about 0.43 µM; inactive means the rest
Possible outcomes: yes = active, no = inactive

>>> label_class("CCCn1cc(C2=C(c3cn(C)c4ccccc34)C(=O)NC2=O)c2ccccc21")
"no"
>>> label_class("C[As](C)Sc1ccnc(S[As](C)C)n1")
"no"
>>> label_class("CCCN(CCC)c1ccc(C=O)cc1")
"no"
>>> label_class("Cc1ccc(Cl)cc1Nc1nc(C(F)(F)F)ccc1C(=O)N/N=C/c1c(Cl)cccc1Cl")
"no"
>>> label_class("O=C(/C=C/C=C/c1ccccc1)c1ccc(Nc2nc(Nc3ccccc3)nc(Nc3ccccc3)n2)cc1")
"no"
>>> label_class("CC1(C)CC[C@]2(C(=O)n3ccnc3)CC[C@]3(C)[C@H](C(=O)C=C4[C@@]5(C)C=C(C#N)C(=O)C(C)(C)[C@@H]5CC[C@]43C)[C@@H]2C1")
"yes"
>>> label_class("O=C(CSc1nc2ccc([N+](=O)[O-])cc2[nH]1)Nc1cccc(Cl)c1")
"no"

###

system: ACHN renal; assay: NCI tumour cell line growth inhibition, 48 h
Here, each record is paired with measured TGI data.
ASSAY_METRIC: TGI

>>> meas_value("COc1ccc(-c2nc(N)c(C#N)c3c2CCSc2ccc(C)cc2-3)cc1OC")
"> 73.9 µM"
>>> meas_value("CC(=O)c1c2c(cc3c1CC1(Cc4cc5c(cc4C1=O)CCC5)C3)CCC2 (stereo not drawn)")
"> 100 µM"
>>> meas_value("OC(c1ccsc1)c1cc2ccccc2s1 (stereo not drawn)")
"> 10 µM"

###

Here, each record is paired with measured TGI data.
tested on: CCRF-CEM leukemia; test: NCI tumour cell line growth inhibition, 48 h
ASSAY_METRIC: TGI

>>> meas_value("Nc1nc(=O)n(C2CC(O)C(O)C(CO)O2)cc1F (stereo unspecified)")
"> 100 µM"
>>> meas_value("CCc1ccc(CCC(=O)O)nc1")
"> 100 µM"
>>> meas_value("COc1c(C(=O)/C(=N/Nc2ccccc2)C(C)=O)c(O)c(OC)c2occc12")
"> 100 µM"
>>> meas_value("CC1C(=O)C(C)C(c2cccs2)N(N=O)C1c1cccs1 (stereo unspecified)")
"> 100 µM"
>>> meas_value("COc1ccc(-n2nnc3c(C#N)c(-c4ccccc4)c(C)n3c2=O)cc1")
"58.5 µM"
>>> meas_value("O=C(N/N=C/c1coc2ccc(Cl)cc2c1=O)c1ccncc1")
"> 100 µM"
>>> meas_value("Cc1cc(Cl)ccc1NC(=O)/C(Cl)=C(/Cl)C(=O)O")
"> 100 µM"
>>> meas_value("O=C(Nc1ccc(Cl)c(Cl)c1)C(=O)Nn1c(=S)[nH]c2ccccc2c1=O")
"> 100 µM"
>>> meas_value("O/N=C(\\C=N\\O)c1ccc2c(c1)Sc1ccccc1O2")
"7.43 µM"
>>> meas_value("O=C(CCc1nnc2s/c(=C\\c3ccc4c(c3)OCO4)c(=O)n12)Nc1cc(Cl)ccc1Cl")
"> 100 µM"
>>> meas_value("C/C(=N\\Nc1ccc2ccccc2n1)c1ccccc1O")
"> 29.4 µM"
>>> meas_value("C[C@]12CCC3[C@@H](C[C@H]4OC(=O)[C@@]35CCC(=O)C=C45)C1CCC2=O (stereo partly specified)")
"> 100 µM"
>>> meas_value("O=C(Cn1c(C(=O)/C=C/c2ccco2)nc2ccccc21)c1ccc(Cl)cc1")
"27.4 µM"
>>> meas_value("Cc1nc2c(O)cccc2c(=O)[nH]1")
"> 1000 µM"
>>> meas_value("Cn1c(N(CCO)CCO)cnc1[N+](=O)[O-]")
"> 100 µM"
>>> meas_value("CC1=Nc2nc3ccccc3n2C(C)(C)C1")
"> 100 µM"
